Observed AC50 values for Histamine H3 receptor (Homo sapiens, UniProt Q9Y5N1) are listed in what follows.
Observable: AC50

* C=CC(N)CCC(=O)O (centres undefined) | > 10 µM
* CCC(=O)OCC(=O)[C@@]1(OC(=O)CC)[C@@H](C)C[C@H]2[C@@H]3CCC4=CC(=O)C=C[C@]4(C)[C@@]3(F)[C@@H](O)C[C@@]21C [BETAMETHASONE DIPROPIONATE] | > 30 µM
* CCCCNc1ccc(C(=O)OCCN(C)C)cc1 | > 10 µM
* Nc1nc(O)c2ncn(COC(CO)CO)c2n1 | > 30 µM
* CCn1cc(C(=O)O)c(=O)c2cc(F)c(N3CCN(C)CC3)cc21 | > 30 µM
* COc1ccc(/C=C/C(=O)Nc2ccccc2C(=O)O)cc1OC | > 30 µM
* O=C(Nc1c(Cl)cncc1Cl)c1ccc(OC(F)F)c(OCC2CC2)c1 | > 30 µM
* C=C[C@@]1(C)CC(=O)[C@]2(O)[C@@]3(C)[C@@H](O)CCC(C)(C)[C@@H]3[C@H](OC(=O)CCN(C)C)[C@H](OC(C)=O)[C@@]2(C)O1 | > 30 µM
* O=C1NC(=O)C(c2ccccc2)(c2ccccc2)N1 | > 30 µM

----------
Items are presented alongside their recorded AC50.
- Measured On: Alpha-2A adrenergic receptor (Homo sapiens)
- Sequence (P08913 whole entry): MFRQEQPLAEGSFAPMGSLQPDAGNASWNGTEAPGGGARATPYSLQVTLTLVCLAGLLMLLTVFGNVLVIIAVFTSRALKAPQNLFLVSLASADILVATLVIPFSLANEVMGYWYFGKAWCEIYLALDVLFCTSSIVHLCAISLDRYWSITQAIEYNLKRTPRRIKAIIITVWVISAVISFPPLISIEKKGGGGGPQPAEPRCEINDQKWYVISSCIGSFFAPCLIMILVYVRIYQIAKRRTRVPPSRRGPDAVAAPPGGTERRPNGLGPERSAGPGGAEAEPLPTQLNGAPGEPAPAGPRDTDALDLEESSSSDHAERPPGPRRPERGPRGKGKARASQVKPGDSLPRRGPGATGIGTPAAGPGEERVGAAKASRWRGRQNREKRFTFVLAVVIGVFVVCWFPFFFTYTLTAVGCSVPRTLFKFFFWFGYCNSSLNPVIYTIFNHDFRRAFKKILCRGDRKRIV
- Type: functional, cell-based
Observable: AC50

• CCc1oc2ccccc2c1C(=O)c1cc(Br)c(O)c(Br)c1 = 3.74 µM
• CO[C@@]1(NC(=O)CSCC#N)C(=O)N2C(C(=O)O)=C(CSc3nnnn3C)CS[C@@H]21 = > 30 µM
• COc1ccc(Cc2nccc3cc(OC)c(OC)cc23)cc1OC = > 30 µM
• C=C(C)[C@@H]1CCC(C)=C[C@H]1c1c(O)cc(CCCCC)cc1O = > 10 µM
• N=C(N)NCCCCCCC(=O)NC(O)C(=O)NCCCCNCCCN (stereo not given) = > 30 µM
• CCCC(C)(COC(N)=O)COC(=O)NC(C)C (stereo not given) = > 10 µM
• N#Cc1ccccc1-c1cc(-c2ccccn2)cn(-c2ccccc2)c1=O = > 30 µM
• NCCCC(O)(P(=O)(O)O)P(=O)(O)O = > 10 µM
• Nc1nc(O)c2ncn(COC(CO)CO)c2n1 = > 30 µM
• COC(=O)N[C@@H](C)CNc1nccc(-c2cn(C(C)C)nc2-c2cc(Cl)cc(NS(C)(=O)=O)c2F)n1 = > 30 µM
• NS(=O)(=O)c1cc(C(=O)O)cc(N2CCCC2)c1Oc1ccccc1 [PIRETANIDE] = > 30 µM
• CCCCNc1ccc(C(=O)OCCN(C)C)cc1 = > 10 µM
• O=C1Nc2ccc(Cl)cc2C(c2ccccc2)=NC1O (stereo not given) = > 10 µM
• Cc1ccc(NC(=O)C2(c3ccc4c(c3)OC(F)(F)O4)CC2)nc1-c1cccc(C(=O)O)c1 = > 30 µM
• CC[C@@H](CO)NC(=O)[C@@H]1C=C2c3cccc4[nH]cc(c34)C[C@H]2N(C)C1 = 17 µM
• CN1CCN(c2c(F)cc3c(=O)c(C(=O)O)cn4c3c2SCC4)CC1 = > 30 µM
• O=C1CN=C(c2ccccc2)c2cc(Cl)ccc2N1 = > 10 µM
• CCCN(CCc1cccs1)[C@H]1CCc2c(O)cccc2C1 = > 10 µM
• O=C(O)c1ccccc1Nc1cccc(C(F)(F)F)c1 = > 30 µM
• CC[C@H]1OC(=O)[C@H](C)[C@@H](O[C@H]2C[C@@](C)(OC)[C@@H](O)[C@H](C)O2)[C@H](C)[C@@H](O[C@@H]2O[C@H](C)C[C@H](N(C)C)[C@H]2O)[C@](C)(OC)C[C@@H](C)C(=O)[C@H](C)[C@@H](O)[C@]1(C)O = > 30 µM
• O=C(O)c1ccccc1OP(=O)(O)O = > 30 µM
• CCn1cc(C(=O)O)c(=O)c2cc(F)c(N3CCN(C)CC3)cc21 = > 30 µM
• Nc1nc2c(c(=O)[nH]1)N(C=O)C(CNc1ccc(C(=O)N[C@@H](CCC(=O)O)C(=O)O)cc1)CN2 (stereo not given in full) = > 30 µM
• CCOc1cc(CC(=O)N[C@@H](CC(C)C)c2ccccc2N2CCCCC2)ccc1C(=O)O [REPAGLINIDE] = > 30 µM
• CC(CCc1ccccc1)NC(C)C(O)c1ccc(O)cc1 (stereo not given) = 19 µM
